B1: Osa-1-4 twister ribozyme (parent)
chain: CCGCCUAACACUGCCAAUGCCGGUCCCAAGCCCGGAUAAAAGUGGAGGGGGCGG

Variants of: B1
Assay: self-cleavage, relative activity (ratio to wild type); higher = more cleavage; co-transcriptional
VALUE TYPE: self-cleavage

variant_designation="C27G C52A" observed_value=0.08
variant_designation="A10G C21G" observed_value=0.08
variant_designation="A10C C20A" observed_value=0.08
